Data origin: a melting point compilation (Tetko et al.; mined from patent text by program, amines drawn as free bases though some values may be those of a salt)

property.measured: melting point

compound	melting point
CCN(CC)C(=O)CCc1cc2ccccc2c(-c2ccccc2)n1	70 °C
CCCCNc1cc(C(=O)O)cc(S(N)(=O)=O)c1-c1ccccc1	134 to 136 °C
CCCn1c(CCOC)nc2c(N)nc3cc(OC4CCOC4)ccc3c21 (stereo unspecified)	192 to 194 °C
CC(C)(NC(=O)c1nnc2ccc(OCCCN3CCC(OC(c4ccccc4)c4ccccc4)CC3)nn12)C(=O)O	163 to 165 °C
CN(C)C(=Cc1ccccc1[N+](=O)[O-])C(=O)CBr	125 to 127 °C
CCCCCCCOC(=O)Oc1ccc(-c2ccc(C#N)cc2)cc1	50.2 to 50.5 °C
COC(=O)C#CCOC(N)=O	113 to 114 °C
COc1ccc(CCOc2ccc(NC(=O)N(C)OC)cc2)cc1	100 to 101 °C
CCCCC(=O)Nc1cccc(NC(=O)CC(C)=O)c1	90 °C
Cc1cc(C(=O)O)ccc1Sc1cc2c(cc1C)C(C)(C)CCC2(C)C	217 to 218 °C

# get_value(readout='melting point', item= CCOC(=O)C1=C(c2ccc(-n3c(C)nc4cnccc43)cc2)NC(C)=C(C(=O)Nc2ccccn2)C1c1ccccc1Cl (stereo unspecified) )
226 to 228 °C
